Reference source: patent US20250270343A1

subject_of_test: T1, soluble mouse GPNMB (recombinant extracellular domain) (mouse, UniProt Q99P91 23-502)
T1 construct: also called moGPNMB; not shown: C-terminal polyhistidine or Avi-His tag
T1 sequence: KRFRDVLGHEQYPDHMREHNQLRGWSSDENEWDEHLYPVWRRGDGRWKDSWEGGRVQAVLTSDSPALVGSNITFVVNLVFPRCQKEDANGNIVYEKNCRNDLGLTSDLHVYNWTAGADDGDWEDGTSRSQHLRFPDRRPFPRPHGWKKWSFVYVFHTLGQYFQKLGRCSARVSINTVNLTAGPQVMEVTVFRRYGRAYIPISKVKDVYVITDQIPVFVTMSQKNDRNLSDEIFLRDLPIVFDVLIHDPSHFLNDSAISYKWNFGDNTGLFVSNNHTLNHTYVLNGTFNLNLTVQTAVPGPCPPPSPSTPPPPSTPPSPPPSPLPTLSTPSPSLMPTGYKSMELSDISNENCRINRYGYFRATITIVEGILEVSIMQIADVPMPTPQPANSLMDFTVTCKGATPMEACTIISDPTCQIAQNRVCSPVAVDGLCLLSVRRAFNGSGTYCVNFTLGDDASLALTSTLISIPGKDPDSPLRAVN
method: SPR Biacore, IgG captured
parameter: kon (M⁻¹ s⁻¹)
Please state the figure in M⁻¹ s⁻¹; there is no need to write the unit.

anti-GPNMB antibody GPN-84 (antibody, V domains shown) VH: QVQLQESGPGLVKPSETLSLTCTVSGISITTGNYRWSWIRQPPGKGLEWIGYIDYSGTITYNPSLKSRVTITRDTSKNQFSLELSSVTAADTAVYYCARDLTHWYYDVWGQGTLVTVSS VL: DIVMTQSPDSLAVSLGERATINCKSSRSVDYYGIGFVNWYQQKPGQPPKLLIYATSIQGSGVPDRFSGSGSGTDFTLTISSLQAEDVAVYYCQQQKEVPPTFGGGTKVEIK ... 160000
anti-GPNMB antibody GPN-86 (antibody, V domains shown) VH: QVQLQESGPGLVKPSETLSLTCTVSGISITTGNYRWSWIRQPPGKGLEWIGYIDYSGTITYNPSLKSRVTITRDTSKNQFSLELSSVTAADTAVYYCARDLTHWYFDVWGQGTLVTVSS VL: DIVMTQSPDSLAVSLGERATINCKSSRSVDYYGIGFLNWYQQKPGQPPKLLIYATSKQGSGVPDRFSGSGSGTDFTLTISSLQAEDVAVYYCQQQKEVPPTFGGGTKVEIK ... 190000
anti-GPNMB antibody GPN-91 (antibody, V domains shown) VH: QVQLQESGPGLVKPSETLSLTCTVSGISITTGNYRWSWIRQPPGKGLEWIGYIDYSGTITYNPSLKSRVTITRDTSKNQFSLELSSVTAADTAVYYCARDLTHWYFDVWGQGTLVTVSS VL: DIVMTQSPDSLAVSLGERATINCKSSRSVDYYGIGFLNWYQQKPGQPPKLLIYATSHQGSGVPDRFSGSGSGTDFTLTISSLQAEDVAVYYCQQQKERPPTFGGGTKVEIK ... 140000
anti-GPNMB antibody GPN-88 (antibody, V domains shown) VH: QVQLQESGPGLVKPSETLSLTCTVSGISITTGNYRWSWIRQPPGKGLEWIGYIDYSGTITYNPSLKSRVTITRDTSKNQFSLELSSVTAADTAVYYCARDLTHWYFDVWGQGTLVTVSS VL: DIVMTQSPDSLAVSLGERATINCKSSRSVDYYGIGFLNWYQQKPGQPPKLLIYATSHQGSGVPDRFSGSGSGTDFTLTISSLQAEDVAVYYCQQQKHVPPTFGGGTKVEIK ... 150000

**Query** Write down kon measured for item anti-GPNMB antibody GPN-83 (antibody, V domains shown) VH: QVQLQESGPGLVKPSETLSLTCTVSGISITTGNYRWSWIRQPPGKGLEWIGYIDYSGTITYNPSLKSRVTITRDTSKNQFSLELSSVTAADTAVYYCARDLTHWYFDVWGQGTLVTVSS VL: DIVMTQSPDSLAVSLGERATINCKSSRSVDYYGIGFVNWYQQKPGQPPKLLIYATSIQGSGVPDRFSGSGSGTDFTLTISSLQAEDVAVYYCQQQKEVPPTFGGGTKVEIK
**Result** 160000
